Values from ChEMBL document CHEMBL3120056

- measurement target: Somatostatin receptor type 5 (Homo sapiens)
- Sequence (P35346 whole entry): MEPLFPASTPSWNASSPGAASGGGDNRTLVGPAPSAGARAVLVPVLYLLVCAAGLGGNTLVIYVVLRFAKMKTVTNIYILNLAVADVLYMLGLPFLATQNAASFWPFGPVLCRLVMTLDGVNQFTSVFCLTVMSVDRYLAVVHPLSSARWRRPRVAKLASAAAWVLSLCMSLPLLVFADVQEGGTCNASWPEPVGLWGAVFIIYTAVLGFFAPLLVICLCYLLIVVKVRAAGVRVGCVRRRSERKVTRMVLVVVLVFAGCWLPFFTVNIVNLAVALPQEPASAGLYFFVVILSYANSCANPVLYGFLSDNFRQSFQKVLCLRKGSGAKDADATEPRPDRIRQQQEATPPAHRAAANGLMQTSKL
- protocol summary: Displacement of [125I]-[LTT]-SS28 from human SST5 receptor expressed in HEK293 cells after 2 hrs by autoradiographic analysis
For each of the molecules below, state its pIC50.
Friendly reminder that pIC50 comes from taking -log10 of the concentration in mol/L.

Reported pIC50 (Somatostatin receptor type 5 (Homo sapiens)) for entry `C[C@@H](O)[C@@H]1NC(=O)[C@H](CCCCN)NC(=O)[C@@H](Cc2c[nH]c3ccccc23)NC(=O)[C@H](Cc2ccccc2)NC(=O)[C@H](Cc2ccccc2)NC(=O)[C@@H](NC(=O)CNC(=O)COCCOCCNC(=O)CN2CCN(CC(=O)O)CCN(CC(=O)O)CCN(CC(=O)O)CC2)CSSC[C@@H](C(=O)O)NC(=O)[C@H](CO)NC(=O)[C@H](Cc2ccccc2)NC1=O` is 7.24

Reported pIC50 (Somatostatin receptor type 5 (Homo sapiens)) for entry `C[C@H](NC(=O)CN1CCN(CC(=O)O)CCN(CC(=O)O)CCN(CC(=O)O)CC1)C(=O)NCC(=O)N[C@H]1CSSC[C@H](C(=O)O)NC(=O)[C@H](CO)NC(=O)[C@H]([C@@H](C)O)NC(=O)[C@H](Cc2ccccc2)NC(=O)[C@H]([C@@H](C)O)NC(=O)[C@H](CCCCN)NC(=O)[C@@H](Cc2c[nH]c3ccccc23)NC(=O)[C@H](Cc2ccccc2)NC(=O)[C@H](Cc2ccccc2)NC(=O)[C@H](CC(N)=O)NC(=O)[C@H](CCCNC(=N)N)NC1=O` is 7.60

Reported pIC50 (Somatostatin receptor type 5 (Homo sapiens)) for entry `C[C@@H](O)[C@@H]1NC(=O)[C@H](CCCCN)NC(=O)[C@@H](Cc2c[nH]c3ccccc23)NC(=O)[C@H](Cc2ccccc2)NC(=O)[C@H](Cc2ccccc2)NC(=O)[C@@H](NC(=O)[C@H](CCCNC(=N)N)NC(=O)COCCOCCNC(=O)CN2CCN(CC(=O)O)CCN(CC(=O)O)CCN(CC(=O)O)CC2)CSSC[C@@H](C(=O)O)NC(=O)[C@H](CO)NC(=O)[C@H](Cc2ccccc2)NC1=O` is 7.80

Reported pIC50 (Somatostatin receptor type 5 (Homo sapiens)) for entry `CCCC[C@H](NC(=O)CNC(=O)[C@H](C)NC(=O)CN1CCN(CC(=O)O)CCN(CC(=O)O)CCN(CC(=O)O)CC1)C(=O)N[C@@H](CCCCN)C(=O)N[C@@H]1CSSC[C@@H](C(=O)N[C@@H](CO)C(=O)NCC(=O)O)NC(=O)[C@H](Cc2ccccc2)NC(=O)[C@H]([C@@H](C)O)NC(=O)[C@H](CCCCN)NC(=O)[C@@H](Cc2c[nH]c3ccccc23)NC(=O)[C@H](Cc2ccccc2)NC(=O)[C@H](Cc2ccccc2)NC1=O` is 7.43

Reported pIC50 (Somatostatin receptor type 5 (Homo sapiens)) for entry `CCCC[C@H](NC(=O)CNC(=O)[C@H](C)NC(=O)CN1CCN(CC(=O)O)CCN(CC(=O)O)CCN(CC(=O)O)CC1)C(=O)N[C@@H](CCCCN)C(=O)N[C@H]1CSSC[C@@H](C(=O)N[C@@H](CO)C(=O)NCC(=O)O)NC(=O)[C@H](Cc2ccccc2)NC(=O)[C@H]([C@@H](C)O)NC(=O)[C@H](CCCCN)NC(=O)[C@@H](Cc2c[nH]c3ccccc23)NC(=O)[C@H](Cc2ccccc2)NC(=O)[C@H](Cc2ccccc2)NC1=O` is 7.30

###

- measurement target: Somatostatin receptor type 2 (Homo sapiens)
- Sequence (P30874 whole entry): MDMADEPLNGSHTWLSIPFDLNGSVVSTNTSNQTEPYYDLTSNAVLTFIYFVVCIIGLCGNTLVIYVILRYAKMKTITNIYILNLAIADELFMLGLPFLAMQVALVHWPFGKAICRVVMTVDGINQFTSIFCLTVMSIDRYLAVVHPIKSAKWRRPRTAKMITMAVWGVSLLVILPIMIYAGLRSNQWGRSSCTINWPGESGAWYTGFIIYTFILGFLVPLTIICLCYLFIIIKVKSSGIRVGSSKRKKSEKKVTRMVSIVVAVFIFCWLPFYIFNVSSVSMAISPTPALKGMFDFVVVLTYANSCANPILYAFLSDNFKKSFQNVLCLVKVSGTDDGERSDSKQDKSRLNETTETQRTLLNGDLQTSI
- protocol summary: Agonist activity at T7-epitope-tagged human SST2A receptor expressed in HEK293 cells assessed as stimulation of receptor internalization at 1 uM after 30 mins by immunofluorescence microscopic analysis
- Type: cell-based
Active and inactive are the calls of the source. No cut-off for these calls is given here.

{"compound": "C[C@@H](O)[C@@H]1NC(=O)[C@H](CCCCN)NC(=O)[C@@H](Cc2c[nH]c3ccccc23)NC(=O)[C@H](Cc2ccccc2)NC(=O)[C@H](Cc2ccccc2)NC(=O)[C@@H](NC(=O)CNC(=O)COCCOCCNC(=O)CN2CCN(CC(=O)O)CCN(CC(=O)O)CCN(CC(=O)O)CC2)CSSC[C@@H](C(=O)O)NC(=O)[C@H](CO)NC(=O)[C@H](Cc2ccccc2)NC1=O", "Activity": "Active"}
{"compound": "CCCC[C@H](NC(=O)CNC(=O)[C@H](C)NC(=O)CN1CCN(CC(=O)O)CCN(CC(=O)O)CCN(CC(=O)O)CC1)C(=O)N[C@@H](CCCCN)C(=O)N[C@H]1CSSC[C@@H](C(=O)N[C@@H](CO)C(=O)NCC(=O)O)NC(=O)[C@H](Cc2ccccc2)NC(=O)[C@H]([C@@H](C)O)NC(=O)[C@H](CCCCN)NC(=O)[C@@H](Cc2c[nH]c3ccccc23)NC(=O)[C@H](Cc2ccccc2)NC(=O)[C@H](Cc2ccccc2)NC1=O", "Activity": "Active"}
{"compound": "C[C@H](NC(=O)CN1CCN(CC(=O)O)CCN(CC(=O)O)CCN(CC(=O)O)CC1)C(=O)NCC(=O)N[C@H]1CSSC[C@H](C(=O)O)NC(=O)[C@H](CO)NC(=O)[C@H]([C@@H](C)O)NC(=O)[C@H](Cc2ccccc2)NC(=O)[C@H]([C@@H](C)O)NC(=O)[C@H](CCCCN)NC(=O)[C@@H](Cc2c[nH]c3ccccc23)NC(=O)[C@H](Cc2ccccc2)NC(=O)[C@H](Cc2ccccc2)NC(=O)[C@H](CC(N)=O)NC(=O)[C@H](CCCNC(=N)N)NC1=O", "Activity": "Active"}
